Recorded melting point values for a group of compounds are listed next.

Record excerpt, results attached:
# query.smiles, melting point
measured = [
    ("COc1cc(-c2cnc3ccccn23)ccc1OCc1ccc(C#N)cc1", "148 to 149 °C"),
    ("COC(=O)c1ccc2nc(-c3ccc(OCc4ccc(Cl)cc4)c(OC)c3)cn2c1", "182 to 183 °C"),
    ("COc1cc(-c2cn3cc(Cl)cc(Cl)c3n2)ccc1OCc1ccccc1", "163 to 165 °C"),
    ("COc1cc(-c2nc3ccccn3c2Cl)ccc1OCc1cccc(F)c1", "104 to 105 °C"),
    ("COc1cc(-c2cn3cc(Br)c(C)c(C)c3n2)ccc1OCc1ccc(Cl)cc1", "166 to 167 °C"),
]

# melting point (compound: COc1cc(-c2cn3cccc(OC)c3n2)ccc1OCc1ccc(Cl)cc1 ) is 132 to 134 °C

# melting point (compound: Oc1cc(-c2cn3ccccc3n2)ccc1OCc1ccc(Cl)cc1 ) is 206 to 208 °C

# melting point (compound: Clc1ccc(COc2ccc(-c3cn4ccccc4n3)cc2)cc1 ) is 229 to 231 °C

# melting point (compound: COc1cc(-c2cn3cccc(C)c3n2)ccc1OCc1ccc(Br)cc1F ) is 122 to 124 °C

# melting point (compound: O=C(O)c1cc(-c2cn3ccccc3n2)ccc1OCc1ccccc1 ) is 239 to 240 °C

# melting point (compound: COc1cc(-c2cnc3ccccn23)ccc1OCc1ccc(F)cc1 ) is 118 to 119 °C

# melting point (compound: COc1cc(-c2cn3ccccc3n2)ccc1OCc1cccc(Cl)c1 ) is 114 to 115 °C

====

Recorded melting point values for a group of compounds are listed next.

# query.smiles, result.value
rows = [
    ("COc1cc(-c2c[nH]c(-c3ccccc3)n2)ccc1OCc1ccccc1", "190 to 192 °C"),
    ("COC(=O)c1cc(-c2cn3ccccc3n2)ccc1OCc1ccccc1", "179 to 181 °C"),
    ("COc1cc(-c2cn3ccccc3n2)ccc1OCC1CC1", "121 to 123 °C"),
    ("COc1cc(-c2cn3ccccc3n2)ccc1OCc1ccccc1", "128 to 129.5 °C"),
    ("COc1cc(-c2cnc3ccccn23)ccc1OCc1ccccc1", "129 to 131 °C"),
]

# melting point (compound: COc1cc(-c2cn3cc(Cl)cc(Cl)c3n2)ccc1OCc1ccc(Cl)cc1 ) is 162 to 163 °C

====

- Tested on: LPL
- experiment.notes: Test for LPL activity-increasing effect in normal rats (skeletal muscle LPL activity)
- Assay type: in vivo
- measurement.setup: 30 mg/kg oral, every day for 1 week; SD rats, soleus muscle, 4 h after administration
Recorded Increase of skeletal muscle LPL activity compared to control (%) values for a group of compounds are listed next.
Express the result in % but write the number alone.

# query.smiles, result.value
records = [
    ("COc1cc(-c2c[nH]c(-c3ccc(C(F)(F)F)cc3)n2)ccc1OCc1ccccc1.Cl", 13),
    ("COc1cc(-c2cn3ccccc3n2)ccc1OCc1ccc(C#N)cc1", 22),
    ("COc1cc(-c2cn3cccc(OCc4ccccc4)c3n2)ccc1OCc1ccc(Br)cc1", 9),
    ("COc1cc(-c2cn3ccsc3n2)ccc1OCc1ccc(Cl)cc1", 18),
]

Okay, next one:
# Increase of skeletal muscle LPL activity compared to control (%) (compound: COc1cc(-c2cn3ccccc3n2)ccc1OCc1ccc(Cl)cc1 ) is 22
